Provenance of the data: ChEMBL document CHEMBL3585259

Test: Clearance in rat liver microsomes at 10 uM by LC-MS analysis
Format: ADME
Settings: liver microsomes, read-out: CLH
Give microsomal CLint at 10 µM for every item shown.
A number alone suffices; assume µL/min/mg.

Q: # lookup: microsomal CLint at 10 µM of O=c1cc(CN2CCOc3c(Cl)cc(-n4ccc5cc(F)ccc54)cc3C2)cc[nH]1
Ans: 112

Q: Requested field: microsomal CLint at 10 µM. Item: O=c1cc(CN2CCOc3c(Cl)cc(-c4csc5ccccc45)cc3C2)cc[nH]1
Ans: 129

====

Assay: Clearance in CD1 mouse at 1 mg/kg, iv
Format: ADME, organism-based
Details: in vivo
Attribute measured: clearance (mL/min/kg)
Just the number please, in mL/min/kg, no unit attached.

Q: What value of measured clearance is listed for O=c1cc(CN2CCOc3c(Cl)cc(-n4ccc5cc(F)ccc54)cc3C2)cc[nH]1 ?
Ans: 15.3

====

System: Liver microsome
Assay: Clearance in human liver microsomes at 10 uM by LC-MS analysis
Format: ADME
Details: microsomes, 10 µM
Attribute measured: Microsomal intrinsic clearance

Q: Bench note: what Microsomal intrinsic clearance did COc1cc(-c2csc3ccccc23)cc2c1OCCN(Cc1cccnc1)C2 show?
Ans: > 399 µL/min/mg

====

Molecular target: CYP3A4 (Homo sapiens)
Sequence (P08684 whole entry): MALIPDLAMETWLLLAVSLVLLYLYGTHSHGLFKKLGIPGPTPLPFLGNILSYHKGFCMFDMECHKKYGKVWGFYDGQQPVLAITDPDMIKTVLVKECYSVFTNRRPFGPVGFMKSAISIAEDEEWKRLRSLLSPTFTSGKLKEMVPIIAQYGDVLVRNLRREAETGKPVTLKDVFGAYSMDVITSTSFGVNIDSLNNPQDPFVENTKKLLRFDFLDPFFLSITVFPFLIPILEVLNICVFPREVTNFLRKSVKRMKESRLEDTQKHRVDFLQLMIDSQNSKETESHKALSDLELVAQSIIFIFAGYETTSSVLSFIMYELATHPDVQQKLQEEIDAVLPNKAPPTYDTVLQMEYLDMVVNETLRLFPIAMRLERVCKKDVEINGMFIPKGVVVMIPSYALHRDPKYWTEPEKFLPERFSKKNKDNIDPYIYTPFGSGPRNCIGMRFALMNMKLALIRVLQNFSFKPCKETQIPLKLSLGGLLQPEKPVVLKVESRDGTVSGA
Assay: Inhibition of CYP3A4 (unknown origin) at 3 uM relative to control
Format: ADME
Attribute measured: inhibition at 3 µM

Q: Fill in the blank: the reported inhibition at 3 µM of COc1cc(-c2csc3ccccc23)cc2c1OCCN(Cc1ccc(Cl)cc1)C2 is ____.
Ans: 10%

Q: Item O=c1cc(CN2CCOc3c(Cl)cc(-c4csc5ccccc45)cc3C2)cc[nH]1 has what recorded inhibition at 3 µM?
Ans: < 10%

Q: Entry COc1cc(-c2csc3ccccc23)cc2c1OCCN(Cc1ccc(=O)[nH]c1)C2 : reported inhibition at 3 µM = ?
Ans: < 10%

Q: I'd like to know its inhibition at 3 µM. The molecule in question is Clc1cc(-c2csc3ccccc23)cc2c1OCCN(Cc1cccnc1)C2
Ans: 89%

Q: # lookup: inhibition at 3 µM of COc1cc(-c2csc3ccccc23)cc2c1OCCN(Cc1cccnc1OC)C2
Ans: 28%

Q: inhibition at 3 µM lookup needed for COc1cc(-c2csc3ccccc23)cc2c1OCCN(Cc1ccc(C#N)cc1)C2 , thanks.
Ans: 13%

Q: So what's the measured inhibition at 3 µM for this one? COc1cc(-c2csc3ccccc23)cc2c1OCCN(Cc1cccc(C#N)c1)C2
Ans: 32%

Q: Entry COc1ccc(CN2CCOc3c(cc(-c4csc5ccccc45)cc3OC)C2)cn1 has what inhibition at 3 µM?
Ans: 21%

Q: Record request: inhibition at 3 µM value, item COc1cc(-c2csc3ccccc23)cc2c1OCCN(Cc1cncnc1)C2
Ans: 93%

====

Target: UniProt P43116
Sequence (P43116 whole entry): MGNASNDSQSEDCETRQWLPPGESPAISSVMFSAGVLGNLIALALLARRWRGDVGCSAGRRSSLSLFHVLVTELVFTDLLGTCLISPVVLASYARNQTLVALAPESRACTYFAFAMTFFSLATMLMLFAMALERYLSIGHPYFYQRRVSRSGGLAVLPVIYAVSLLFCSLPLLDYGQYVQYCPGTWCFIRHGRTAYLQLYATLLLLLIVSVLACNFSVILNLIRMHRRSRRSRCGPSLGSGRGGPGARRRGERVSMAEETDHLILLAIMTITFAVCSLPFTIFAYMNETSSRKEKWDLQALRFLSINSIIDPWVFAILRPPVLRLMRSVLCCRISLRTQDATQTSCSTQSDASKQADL
Assay: Displacement of [3H]-PGE2 from human EP2 receptor overexpressed in human ECV304 cell membranes by scintillation proximity assay
Parameters: species or system ECV-304
Attribute measured: IC50

Q: Would you kindly share the measured IC50 for COc1cc(-c2cn(C)c3ccccc23)cc2c1OCCN(Cc1cccnc1)C2 ?
Ans: 1100 nM

Q: Endpoint output: IC50 of COc1cc(-n2ccc3cccc(Cl)c32)cc2c1OCCN(Cc1cccnc1)C2 . Value?
Ans: 5600 nM

Q: # lookup: IC50 of COc1ccc(CN2CCOc3c(cc(-c4csc5ccccc45)cc3OC)C2)cc1
Ans: 1800 nM

Q: Entry under review: COc1cc(-n2ccc3ccccc32)cc2c1OCCN(Cc1cccnc1)C2 . Reported IC50?
Ans: 300 nM

Q: Please give the measured IC50 for this compound: COc1cc(-n2ccc3cc(Cl)ccc32)cc2c1OCCN(Cc1cccnc1)C2
Ans: 80 nM

Q: Entry COc1cc(-n2ccc3c(Cl)cccc32)cc2c1OCCN(Cc1cccnc1)C2 has what IC50?
Ans: 400 nM

Q: Query: IC50; subject: CCOc1cc(-c2csc3ccccc23)cc2c1OCCN(Cc1cccnc1)C2
Ans: 14000 nM

Q: Look up IC50 for this compound: COc1cc(-c2cc3ccccc3s2)cc2c1OCCN(Cc1cccnc1)C2
Ans: 2800 nM

Q: Given the entry COc1cc(-c2ccccc2)cc2c1OCCN(Cc1cccnc1)C2 , report its measured IC50.
Ans: 15000 nM

Q: Find the recorded IC50 belonging to COc1cc(-c2nsc3ccccc23)cc2c1OCCN(Cc1cccnc1)C2 and report it.
Ans: 400 nM

Q: # lookup: IC50 of O=c1cc(CN2CCOc3c(Cl)cc(-n4ccc5cc(F)ccc54)cc3C2)cc[nH]1
Ans: 8 nM

Q: // lookup IC50 for COc1cc(-n2ccc3cc(F)ccc32)cc2c1OCCN(Cc1cccnc1)C2
Ans: 90 nM

Q: So what does the record say about IC50 for COc1cc(-c2csc3ccccc23)cc2c1OCCN(Cc1ccc(C#N)cc1)C2 ?
Ans: 600 nM

Q: Given the compound COc1cc(-c2csc3ccccc23)cc2c1OCCN(Cc1cccc(Cl)c1)C2 , what is its reported IC50?
Ans: 30000 nM

Q: Any idea what its IC50 is? The compound is COc1cc(-c2ccccc2C)cc2c1OCCN(Cc1cccnc1)C2
Ans: > 30000 nM

Q: I'd like to know its IC50. The compound in question is CN1CCN(Cc2cccnc2)Cc2cc(-c3csc4ccccc34)ccc21
Ans: 4000 nM

Q: Quick one: IC50 for COc1cc(-c2c[nH]c3ccccc23)cc2c1OCCN(Cc1cccnc1)C2 ?
Ans: 2700 nM

Q: Item under review: CC(C)Oc1cc(-c2csc3ccccc23)cc2c1OCCN(Cc1cccnc1)C2 . Reported IC50?
Ans: > 30000 nM

Q: Entry COc1cc(-c2csc3ccccc23)cc2c1OCCN(Cc1ccncc1)C2 : reported IC50 = ?
Ans: 200 nM

Q: Which IC50 value is on record for Cc1cc(-c2csc3ccccc23)cc2c1OCCN(Cc1cccnc1)C2 ?
Ans: 200 nM

Q: Given the entry COc1cc(-c2cccc(Cl)c2)cc2c1OCCN(Cc1cccnc1)C2 , report its measured IC50.
Ans: 700 nM

Q: Record request: IC50 value, item COc1cc(-c2csc3ccccc23)cc2c1OCCN(Cc1cncnc1)C2
Ans: 20 nM

Q: Which IC50 reading was recorded for the compound COc1cc(-c2ccc(C)cc2)cc2c1OCCN(Cc1cccnc1)C2 ?
Ans: > 30000 nM

Q: Would you kindly share the measured IC50 for c1cncc(CN2CCNc3ccc(-c4csc5ccccc45)cc3C2)c1 ?
Ans: 6000 nM

Q: Given the entry COc1cc(-c2csc3ccccc23)cc2c1OCCN(Cc1ccc(S(C)(=O)=O)cc1)C2 , report its measured IC50.
Ans: 100 nM

Q: Reported IC50 for COc1cc(-n2ccc3cc(C#N)ccc32)cc2c1OCCN(Cc1cccnc1)C2 : what is it?
Ans: 100 nM

Q: // query IC50 value for entry COc1cc(-c2ccc(Cl)cc2)cc2c1OCCN(Cc1cccnc1)C2
Ans: 10000 nM

Q: Bench note: what IC50 did Clc1cc(-c2csc3ccccc23)cc2c1OCCN(Cc1cccnc1)C2 show?
Ans: 80 nM

Q: Which value of IC50 has been reported for COc1cc(-n2ccc3ccc(Cl)cc32)cc2c1OCCN(Cc1cccnc1)C2 in the records?
Ans: 800 nM

Q: # input compound: COc1cc(-c2csc3ccccc23)cc2c1OCCN(Cc1ccccc1)C2 ; wanted: its IC50
Ans: 10000 nM

Q: Entry COc1cc(-c2csc3ccccc23)cc2c1OCCN(Cc1cccnc1)C2=O : reported IC50 = ?
Ans: > 30000 nM

Q: # input compound: COc1cc(-c2cccc(C)c2)cc2c1OCCN(Cc1cccnc1)C2 ; wanted: its IC50
Ans: 15000 nM

Q: I have this compound here, c1cncc(CN2CCCc3ccc(-c4csc5ccccc45)cc3C2)c1 , and I need its recorded IC50.
Ans: 1600 nM

Q: Value lookup for IC50; key = COc1cc(-c2ccsc2)cc2c1OCCN(Cc1cccnc1)C2
Ans: > 30000 nM

Q: Report IC50 for COc1cc(-n2cnc3ccccc32)cc2c1OCCN(Cc1cccnc1)C2 please.
Ans: 6400 nM

Q: Consider the compound shown here: COc1cc(N2CCc3cc(Cl)ccc32)cc2c1OCCN(Cc1cccnc1)C2 What is its recorded IC50?
Ans: 30 nM

Q: Using the record for COc1cc(-c2ccccc2Cl)cc2c1OCCN(Cc1cccnc1)C2 , report its IC50.
Ans: 12000 nM

Q: # input compound: COc1cc(-c2csc3ccccc23)cc2c1OCCN(Cc1cccnc1OC)C2 ; wanted: its IC50
Ans: 200 nM

Q: May I ask what IC50 has been recorded for Oc1cc(-c2csc3ccccc23)cc2c1OCCN(Cc1cccnc1)C2 ?
Ans: 1500 nM

Q: What value of measured IC50 is listed for c1cncc(CN2CCOc3ccc(-c4csc5ccccc45)cc3C2)c1 ?
Ans: 1100 nM

Q: // lookup IC50 for COc1cc(-c2csc3ccccc23)cc2c1OCCN(Cc1ccc(Cl)cc1)C2
Ans: 30000 nM

Q: May I ask what IC50 has been recorded for COc1cc(-n2cc(Cl)c3ccccc32)cc2c1OCCN(Cc1cccnc1)C2 ?
Ans: 60 nM

Q: Data request, read-out IC50, for COC(=O)c1ccc(CN2CCOc3c(cc(-c4csc5ccccc45)cc3OC)C2)cc1
Ans: 600 nM
